# System Name: Suppressor of tumorigenicity 14 protein (Homo sapiens, UniProt Q9Y5Y6)
# Sequence (Q9Y5Y6 whole entry): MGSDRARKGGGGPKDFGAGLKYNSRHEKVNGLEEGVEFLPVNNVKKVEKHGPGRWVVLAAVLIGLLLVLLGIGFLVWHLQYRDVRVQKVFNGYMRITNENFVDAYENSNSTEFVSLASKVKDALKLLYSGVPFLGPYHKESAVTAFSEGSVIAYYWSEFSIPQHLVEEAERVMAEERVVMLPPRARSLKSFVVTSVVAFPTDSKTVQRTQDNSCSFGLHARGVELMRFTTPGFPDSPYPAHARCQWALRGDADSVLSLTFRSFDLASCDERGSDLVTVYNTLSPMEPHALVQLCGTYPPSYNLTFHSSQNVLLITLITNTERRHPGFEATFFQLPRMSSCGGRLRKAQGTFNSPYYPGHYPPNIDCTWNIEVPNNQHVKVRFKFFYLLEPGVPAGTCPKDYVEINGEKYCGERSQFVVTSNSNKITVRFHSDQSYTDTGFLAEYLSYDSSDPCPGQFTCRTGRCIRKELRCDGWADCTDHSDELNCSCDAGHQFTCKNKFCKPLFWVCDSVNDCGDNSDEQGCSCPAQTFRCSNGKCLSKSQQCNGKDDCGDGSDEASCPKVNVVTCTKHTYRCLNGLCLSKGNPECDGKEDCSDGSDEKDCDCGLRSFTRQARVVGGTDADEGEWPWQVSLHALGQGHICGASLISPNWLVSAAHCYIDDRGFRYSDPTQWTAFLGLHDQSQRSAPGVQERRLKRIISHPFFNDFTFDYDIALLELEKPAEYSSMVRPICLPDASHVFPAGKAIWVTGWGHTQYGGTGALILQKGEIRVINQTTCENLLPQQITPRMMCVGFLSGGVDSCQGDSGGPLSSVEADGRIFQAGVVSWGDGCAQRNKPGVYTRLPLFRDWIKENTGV
# Assay Protocol: Tight binding inhibition of human matriptase expressed in Drosophila melanogaster S2 cells using Boc-QAR-AMC as substrate incubated for 15 mins prior to substrate addition measured for 30 mins by fluorimetric analysis
pKi: −log10 of the molar value.
Experimental Endpoint: pKi

{"Line Notation": "C[C@H](N)C(=O)N[C@@H](CCCN=C(N)N)C(=O)c1nc2ccccc2s1", "Readout Value": 8.85}
